# System: A549
# protocol notes: Cytotoxicity against human A549/ATCC cells assessed as growth inhibition after 48 hrs by sulforhodamine B assay
# Assay type: functional
# experimental setup: A549, 48 h
readout type: TGI (µM)
Report as a plain number; the unit µM is understood.

Solved entries (count: 3):
>>> print(df.to_string())
                                chem_smiles  unit_abbreviation  numeric_result
0  COc1cc(C(=O)/C=C/c2cc(-c3ccc4c(c3)OCO4)n[nH]2)cc(OC)c1OC                 µM            6.23
1  COc1cc(-c2cc(/C=C/C(=O)c3ccc(F)c(F)c3)[nH]n2)cc(OC)c1OC                 µM             9.9
2  COc1ccc(-c2cc(/C=C/C(=O)c3ccc(N)cc3)[nH]n2)cc1OC                 µM            10.1

Give a short answer stating reported TGI for COc1cc2c(cc1OC)C(=O)/C(=C/c1cc(-c3ccc4c(c3)OCO4)n[nH]1)C2 .
5.45

Give a short answer stating reported TGI for COc1ccc(C(=O)/C=C/c2cc(-c3cc(OC)c(OC)c(OC)c3)n[nH]2)cc1OC .
4.59

----------
# Tested on: UACC-62
# protocol notes: Cytotoxicity against human UACC62 cells assessed as cell growth at 10 uM after 48 hrs by sulforhodamine B assay relative to control
# Assay type: functional
# experimental setup: UACC-62, 48 h, read-out: Activity
Collected growth at 10 µM values appear next to each entry.
Report as a plain number; the unit % is understood.

Solved entries (count: 3):
>>> df
                                chem_smiles     readout_type  unit_abbreviation  numeric_result
0  COc1cc(-c2cc(/C=C/C(=O)c3ccc(N)cc3)[nH]n2)cc(OC)c1OC  growth at 10 µM                  %             -69
1  COc1cc(C(=O)/C=C/c2cc(-c3ccc4c(c3)OCO4)n[nH]2)cc(OC)c1OC  growth at 10 µM                  %             -62
2  COc1ccc(-c2cc(/C=C/C(=O)c3ccc(OC)c(OC)c3)[nH]n2)cc1  growth at 10 µM                  %             -77

Consider the record given below.
Give a short answer stating reported growth at 10 µM for COc1cc(-c2cc(/C=C/C(=O)c3ccc4c(c3)OCO4)[nH]n2)cc(OC)c1OC .
26

----------
# Tested on: MDA-MB-435
# protocol notes: Cytotoxicity against human MDA-MB-435 cells assessed as cell growth at 10 uM after 48 hrs by sulforhodamine B assay relative to control
# Assay type: functional
# experimental setup: MDA-MB-435, 48 h, read-out: Activity
readout type: growth at 10 µM (%)
Report as a plain number; the unit % is understood.

In [3]: df
Out[3]:
                                chem_smiles     readout_type  numeric_result
0  COc1cc(-c2cc(/C=C/C(=O)c3ccc(N)cc3)[nH]n2)cc(OC)c1OC  growth at 10 µM             -86
1  COc1ccc(-c2cc(/C=C/C(=O)c3cc(OC)c(OC)c(OC)c3)[nH]n2)cc1OC  growth at 10 µM             -55
2  COc1cc(-c2cc(/C=C/C(=O)c3ccc(F)c(F)c3)[nH]n2)cc(OC)c1OC  growth at 10 µM               5
3  COc1ccc(C(=O)/C=C/c2cc(-c3cc(OC)c(OC)c(OC)c3)n[nH]2)cc1OC  growth at 10 µM             -92

Consider the record given below.
# return growth at 10 µM for COc1cc(C(=O)/C=C/c2cc(-c3cc(OC)c(OC)c(OC)c3)n[nH]2)cc(OC)c1OC , test system: MDA-MB-435
-90

Hey, just so you know, these numbers are from ChEMBL document CHEMBL4138123.
